- TARGET OF ASSAY: ACE2 (human, UniProt Q9BYF1 18-740)
- Sequence (Q9BYF1 18-740 limits assumed): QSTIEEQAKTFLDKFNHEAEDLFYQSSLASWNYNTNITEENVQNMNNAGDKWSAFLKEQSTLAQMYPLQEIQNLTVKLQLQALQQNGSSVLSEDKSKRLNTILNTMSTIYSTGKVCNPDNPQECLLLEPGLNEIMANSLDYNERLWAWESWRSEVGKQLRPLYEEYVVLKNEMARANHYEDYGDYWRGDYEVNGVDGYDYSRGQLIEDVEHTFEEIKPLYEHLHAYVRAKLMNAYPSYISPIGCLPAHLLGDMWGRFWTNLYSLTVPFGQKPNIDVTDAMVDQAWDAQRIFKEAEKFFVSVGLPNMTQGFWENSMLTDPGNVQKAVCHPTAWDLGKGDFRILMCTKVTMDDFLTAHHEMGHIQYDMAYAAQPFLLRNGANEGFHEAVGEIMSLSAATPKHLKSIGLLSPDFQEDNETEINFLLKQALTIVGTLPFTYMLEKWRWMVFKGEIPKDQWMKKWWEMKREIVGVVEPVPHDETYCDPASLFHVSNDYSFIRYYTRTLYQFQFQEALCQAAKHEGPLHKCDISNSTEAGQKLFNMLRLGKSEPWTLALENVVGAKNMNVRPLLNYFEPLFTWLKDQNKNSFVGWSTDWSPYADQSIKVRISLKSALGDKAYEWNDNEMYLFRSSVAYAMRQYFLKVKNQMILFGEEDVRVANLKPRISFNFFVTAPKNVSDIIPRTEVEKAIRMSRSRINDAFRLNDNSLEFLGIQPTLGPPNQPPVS
REPORTED METRIC: koff (s⁻¹)

>>> reported_value("ACE2 variant antibody 4-78 (VHH) VHH: EVQLVESGGGLVQPGGSLRLSCAASGRTFSDDTMGWFRQAPGKEREFVAGMTWSGSSTFYADSVKGRFTISADNSKNTAYLQMNSLKPEDTAVYYCATDPPLFWGQGTLVTVSS")
0.00263
>>> reported_value("ACE2 variant antibody 3-13 (antibody, V domains shown) VH: EVQLLESGGGLVQPGGSLRLSCAASGFTITNYAMSWVRQAPGKGLEWVSGISGSGAGTYYADSVKGRFTISRDNSKNTLYLQMNSLRAEDTAVYYCARHTWWKGAGFFDHWGQGTLVTVSS VL: DIQMTQSPSSLSASVGDRVTITCRASQSIGRYLNWYQQKPGKAPKLLIYAASSLKSGVPSRFSGSGSGTDFTLTISSLQPEDFATYYCQQSYSLPRTFGQGTKVEIK")
0.0102
>>> reported_value("ACE2 variant antibody 4-41 (VHH) VHH: EVQLVESGGGLVQPGGSLRLSCAASGRTFGDYIMGWFRQAPGKERESVAAINWSGGTTPYADSVKGRFTISADNSKNTAYLQMNSLKPEDTAVYYCATDPPLFCCHVDLWGQGTLVTVSS")
0.001

Attribution: patent US20210355194A1
